Reported Turnover by item:
Tested on: HPPD polypeptides
Assay: coupled HPPD activity assay: turnover and residual turnover in crude extracts
Assay type: biochemical, Pseudomonas fluorescens
Conditions: absence of Cmpd. 1; high substrate concentration; kinetic changes in absorbance (OD) at 320 nm, 30 min

molecule	Turnover
67 (protein, mutant HPPD polypeptide) MADLYENPMGLMGFEFIEFASPTPGTLEPIFEIMGFTKVATHRSKNVHLYRQGEINLILNNEPNSIASYFAAEHGPSVCGMAFRVKDSQKAYNRALELGAQPIHIDTGPMELNLPAIKGIGGAPLYLIDRFGEGSSIYDIDFVYLEGVERNPVGAGLKVIDHLTHNVYRGRMVYWANFYEKLFNFREARYFDIKGEYTGLTSKAMSAPDGMIKIPLNEESSKGAGQIEEFLMQFNGEGIQHVAFLTDDLVKTWDALKKIGMRFMTAPADSYYEMLEGRLPDHGEPVDQLQARGILLDGSSVEGDKRLLLQIFSERLMGPVFFEFIQRKGDDGFGPHSFKVLFEQMERDQVRRGVLTAD	0.335

Here is the next item to consider.
Asked: # Turnover lookup, item 60 (protein, mutant HPPD polypeptide) MADLYENPMGLMGFEFIEFASPTPGTLEPIFEIMGFTKVATHRSKNVHLYRQGEINLILNNEPNSIASYFAAEHGPSVCGMAFRVKDSQKAYNRALELGAQPIHIDTGPMELNLPAIKGIGGAPLYLIDRFGEGSSIYDIDFVYLEGVERNPVGAGLKVIDHLTHNVYRGRIDYWANFYEKLFNFREARYFDIKGEYTGLTSKAMSAPDGMIRIPLNEESSKGAGQIEEFLMQFNGEGIQHVAFLTDDLVKTWDALKKIGMRFMTAPADSYYEMLEGRLPDHGEPVDQLQARGILLDGSSVEGDKRLLLQIFSETLMGPVFFEFIQRKGDDGFGPDSFKVLFESKERDQVRRGVLTAD
Given back: 0.103
